Target: cannabinoid central type (CB1) receptor (Rattus norvegicus, UniProt P20272)
Construct: rat cerebellar membrane fraction and spleen cells were respectively used; from tissue; host or cells: rat cerebellar membrane fraction (male SD rats, 7-9 weeks old)
Sequence (P20272 whole entry): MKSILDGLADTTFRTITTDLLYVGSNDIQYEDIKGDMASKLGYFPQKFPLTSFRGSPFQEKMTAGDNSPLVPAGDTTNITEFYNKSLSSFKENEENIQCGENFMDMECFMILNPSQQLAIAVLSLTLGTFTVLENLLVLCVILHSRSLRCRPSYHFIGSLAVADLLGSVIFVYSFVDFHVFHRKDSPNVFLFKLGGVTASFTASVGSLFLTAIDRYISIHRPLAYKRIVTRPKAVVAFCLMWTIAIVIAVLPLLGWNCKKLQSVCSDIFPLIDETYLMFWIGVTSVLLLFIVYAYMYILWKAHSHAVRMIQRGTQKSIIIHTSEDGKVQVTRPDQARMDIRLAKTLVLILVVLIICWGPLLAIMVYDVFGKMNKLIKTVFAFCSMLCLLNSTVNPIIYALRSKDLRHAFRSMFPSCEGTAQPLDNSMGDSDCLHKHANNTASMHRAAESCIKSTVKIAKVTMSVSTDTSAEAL
Experiment: Binding assay, cannabinoid central type receptor (CB1), rat cerebellar membrane fraction, [3H]Win55212-2
Measured Ki by item

{"columns": ["molecule", "Ki"],
 "data": [
  ["CCCCCOc1cc(C(=O)NC2CCc3cc(O)c(O)cc3C2)ccc1OC (stereo not drawn) [Example 2-26]", "> 2.5 µM"],
  ["CCCCCOc1ccc(C(=O)NCCc2ccc(O)cc2)cc1OCCCCC [Example 2-3]", "> 3.3 µM"]
]}

Moving on to another molecule below.
Challenge: Fill in the blank: the reported Ki of CCCCCOc1ccc(C(=O)NCCc2ccc(N)cc2)cc1SCCCCC [Example 2-52] is ____.
Response given: > 4.3 µM

----------
Molecular target: cannabinoid peripheral type (CB2) receptor (Rattus norvegicus, UniProt Q9QZN9)
Construct: rat cerebellar membrane fraction and spleen cells were respectively used; from tissue; host or cells: rat spleen cells (male SD rats, 7-9 weeks old)
Sequence (Q9QZN9 1-360): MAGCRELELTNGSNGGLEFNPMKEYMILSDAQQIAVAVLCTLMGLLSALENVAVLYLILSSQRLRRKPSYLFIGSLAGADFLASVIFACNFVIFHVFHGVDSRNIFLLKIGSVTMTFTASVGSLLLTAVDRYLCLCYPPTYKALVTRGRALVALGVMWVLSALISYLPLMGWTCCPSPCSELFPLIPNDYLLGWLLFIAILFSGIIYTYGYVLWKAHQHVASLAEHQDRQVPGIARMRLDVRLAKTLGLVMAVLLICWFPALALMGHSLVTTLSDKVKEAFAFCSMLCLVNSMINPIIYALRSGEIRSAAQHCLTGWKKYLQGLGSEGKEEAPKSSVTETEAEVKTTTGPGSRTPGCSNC
Assay: Binding assay, cannabinoid peripheral type receptor (CB2), rat spleen cells, [3H]Win55212-2
Settings: rat spleen cells, [3H]Win55212-2 2 nM, 4° C. 360 min; read-out: Ki value, Peripheral receptor (S)
Recorded Ki, one value per entry.
// note: answer is a bare numeric in nM

{"columns": ["compoundStructure", "experimentalTarget", "Ki, nM"],
 "data": [
  ["CCCCCNc1cc(C(=O)NCCc2ccc(O)cc2)ccc1OC", "cannabinoid peripheral type (CB2) receptor (Rattus norvegicus, UniProt Q9QZN9)", 1.1]
]}

Let us examine a further case.
Challenge: Return Ki measured with cannabinoid peripheral type (CB2) receptor (Rattus norvegicus, UniProt Q9QZN9) given this compound: `CCCCCOc1ccc2c(c1OCCCCC)CN(CCc1ccc([N+](=O)[O-])cc1)C2=O`
Response given: 1.8

----------
Target: cannabinoid central type (CB1) receptor (Rattus norvegicus, UniProt P20272)
Construct: rat cerebellar membrane fraction and spleen cells were respectively used; from tissue; host or cells: rat cerebellar membrane fraction (male SD rats, 7-9 weeks old)
Assay: Binding assay, cannabinoid central type receptor (CB1), rat cerebellar membrane fraction, [3H]Win55212-2
pKi: −log10 of the molar value.
assayReadout: pKi

Consider the worked cases shown below.
{"columns": ["compound", "pKi"],
 "data": [
  ["CCCCCOc1c(OC)ccc2c1CN(CCc1ccc(O)cc1)C2=O [Example 7-5]", "< 5.60"],
  ["CCCCOc1cc(C(=O)NCCc2ccc(O)cc2)ccc1OC [Example 2-7]", "< 5.60"]
]}

// next item, pKi requested
Challenge: What value of measured pKi is listed for CCCCCOc1c(OC)ccc2c1CCN(CCc1ccc(O)cc1)C2=O [Example 7-24] ?
Response given: < 5.60
